Listed here: items and their measured IC50.
Molecular target: mTOR kinase (Homo sapiens)
measured_property: IC50

# structure_string, result
measured = [
    ("CN1CCN(C(=O)c2ccc(NC(=O)Nc3ccc(-c4nc(N5CCOCC5)c5ccc(-c6ccsc6)cc5n4)cc3)cc2)CC1", "50 to 200 nM"),
    ("CN(C)C(=O)c1ccc(NC(=O)Nc2ccc(-c3nc(N4CCOCC4)c4ccc(C(=O)N5CCC(N(C)C)CC5)cc4n3)cc2)cc1", "201 to 10000 nM"),
    ("COc1ncc(-c2cnc3c(N4CCOCC4)nc(-c4ccc(NC(=O)Nc5ccc(C(=O)N(C)C)cc5F)cc4)nc3c2)cn1", "< 50 nM"),
    ("Cc1ccc(-c2ccc3c(N4CCOCC4)nc(-c4ccc(NC(=O)Nc5ccc(N6CCCC6=O)cc5)cc4)nc3c2)o1", "< 50 nM"),
    ("CN(C)C(=O)c1ccc(NC(=O)Nc2ccc(-c3nc(N4CCOCC4)c4cc(F)c(-c5cccnc5)cc4n3)cc2)cc1", "< 50 nM"),
]

Origin of values: patent US9115092B2
